Test: insulin promoter down-regulators in MIN6 cells, imaging, high-content screening, mouse beta cells (AID 1628)
Conditions: MIN6 insulin promoter GFP reporter, at 5 µM, active compounds read low
Among all 190,000 compounds or so, about 930 (0.49%) were called active. The list shows a part of the results. Measured potencies and affinities stand elsewhere.
READOUT_TYPE: z-score

[[record]]
chemical_structure = "O=C(O)c1cccc2nc3ccccc3nc12"
readout_value = -0.32

[[record]]
chemical_structure = "CCC(=O)c1ccc(OC)c(OC)c1"
readout_value = -0.74

[[record]]
chemical_structure = "CN1CCN(c2nc(Cl)ncc2F)CC1"
readout_value = 4.91

[[record]]
chemical_structure = "Nc1cc2nc3ccccc3nc2cc1N"
readout_value = 3.68


* * *

Experiment: insulin promoter down-regulators in MIN6 cells, imaging, high-content screening, mouse beta cells (AID 1628)
Settings: MIN6 insulin promoter GFP reporter, at 5 µM, active compounds read low
The whole screen tested about 190,000 compounds, of which about 930 (0.49%) were called active. This is one part of the list. Entries with a potency or affinity are not part of this list.
z-score under 0.2 gets label 1, anything at or over 0.2 gets label 0.

[[record]]
chemical_structure = "c1ccc2c(N3CCNCC3)nsc2c1"
cat = "label 0"

[[record]]
chemical_structure = "CN1C2CCC1CC(=NO)C2"
cat = "label 0"

[[record]]
chemical_structure = "Cc1cc(C=C2C(=O)NC(=O)NC2=O)c(C)n1-c1ccncc1"
cat = "label 0"

[[record]]
chemical_structure = "CN1C(=O)C(=Cc2ccc(N3CCCCC3)o2)C(=O)N(C)C1=S"
cat = "label 0"

[[record]]
chemical_structure = "COc1ccc(-c2cc(-c3ccccc3)[n+](C)c(-c3ccccc3)c2)cc1"
cat = "label 1"

[[record]]
chemical_structure = "CN1/C(=C\\C=C2C(=O)NC(=S)NC2=O)C(C)(C)c2ccccc21"
cat = "label 0"


* * *

Assay: insulin promoter down-regulators in MIN6 cells, imaging, high-content screening, mouse beta cells (AID 1628)
Conditions: MIN6 insulin promoter GFP reporter, at 5 µM, active compounds read low
Out of some 190,000 compounds screened, about 930 (0.49%) were called active. The list shows a part of the results. Measured potencies and affinities stand elsewhere.
READOUT_TYPE: z-score

[[record]]
chemical_structure = "O=C1NC(=O)N(c2ccc3c(c2)OCO3)C(=O)/C1=C/c1cccs1"
readout_type = "z-score"
readout_value = 1.66

[[record]]
chemical_structure = "NC(=O)OCCSc1nnc(-c2cccc(C(N)=S)c2)o1"
readout_type = "z-score"
readout_value = 1.36

[[record]]
chemical_structure = "CCCCCCn1c(O)c(C=Nc2ccccc2N2CCOCC2)c(=O)[nH]c1=S"
readout_type = "z-score"
readout_value = 3.25

[[record]]
chemical_structure = "O=c1[nH]c(=O)n(-c2ccc(F)cc2)c(O)c1C=Nc1ccccc1N1CCCC1"
readout_type = "z-score"
readout_value = 4.37

[[record]]
chemical_structure = "Oc1c(Cl)cc(Cl)cc1CN1CCN(Cc2ccccc2)CC1"
readout_type = "z-score"
readout_value = 2.17

[[record]]
chemical_structure = "O=c1cc(C(F)(F)F)c2cc3c4c(c2o1)CCCN4CCC3"
readout_type = "z-score"
readout_value = 17.3


* * *

Assay: insulin promoter down-regulators in MIN6 cells, imaging, high-content screening, mouse beta cells (AID 1628)
Settings: MIN6 insulin promoter GFP reporter, at 5 µM, active compounds read low
Hit rate of the full screen: of about 190,000 compounds, about 930 (0.49%) were called active. Some of the results follow. Potency and affinity values are given separately.
Class (required): determined from z-score; valid ranges are c1 (below -3), c2 (-3 to below -0.2), c3 (-0.2 or more)

[[record]]
molecule = "CCCCn1c(O)c(C(=O)/C=C/c2c[nH]c3ccccc23)c(=O)[nH]c1=O"
cat = "c3"

[[record]]
molecule = "CNCCc1c[nH]c2ccccc12"
cat = "c3"

[[record]]
molecule = "O=C(/C=C/c1ccccc1)NCCc1cnc[nH]1"
cat = "c2"

[[record]]
molecule = "N#Cc1ccccc1Cn1cc(C(=O)c2ccco2)c2ccccc21"
cat = "c1"

[[record]]
molecule = "CCCCCCn1c(O)c(C=NC2CCCCC2N)c(=O)[nH]c1=O (stereo unspecified)"
cat = "c2"

[[record]]
molecule = "CCCCCn1c(=O)c(C(=O)Nc2nc3ccccc3[nH]2)c(O)c2ccccc21"
cat = "c1"

[[record]]
molecule = "O=C(/C=C/c1c[nH]c2ccccc12)c1c(O)n(CCc2ccccc2)c(=O)[nH]c1=O"
cat = "c3"

[[record]]
molecule = "CCCCc1ccc2[nH]cc(CCN)c2c1"
cat = "c3"

[[record]]
molecule = "CCCCCn1c(=O)c(C(=O)Nc2cnccn2)c(O)c2ccccc21"
cat = "c1"

[[record]]
molecule = "O=C1Nc2ccc(Br)cc2C(c2ccccc2Cl)=NC1O (stereo unspecified)"
cat = "c2"

[[record]]
molecule = "CCn1nc(/C=C/c2ccccc2)nc2c(=O)n(C)c(=O)nc1-2"
cat = "c1"

